- tgt: T1, mouse P2X7 (mouse, UniProt Q9Z1M0 1-595)
- T1 sequence: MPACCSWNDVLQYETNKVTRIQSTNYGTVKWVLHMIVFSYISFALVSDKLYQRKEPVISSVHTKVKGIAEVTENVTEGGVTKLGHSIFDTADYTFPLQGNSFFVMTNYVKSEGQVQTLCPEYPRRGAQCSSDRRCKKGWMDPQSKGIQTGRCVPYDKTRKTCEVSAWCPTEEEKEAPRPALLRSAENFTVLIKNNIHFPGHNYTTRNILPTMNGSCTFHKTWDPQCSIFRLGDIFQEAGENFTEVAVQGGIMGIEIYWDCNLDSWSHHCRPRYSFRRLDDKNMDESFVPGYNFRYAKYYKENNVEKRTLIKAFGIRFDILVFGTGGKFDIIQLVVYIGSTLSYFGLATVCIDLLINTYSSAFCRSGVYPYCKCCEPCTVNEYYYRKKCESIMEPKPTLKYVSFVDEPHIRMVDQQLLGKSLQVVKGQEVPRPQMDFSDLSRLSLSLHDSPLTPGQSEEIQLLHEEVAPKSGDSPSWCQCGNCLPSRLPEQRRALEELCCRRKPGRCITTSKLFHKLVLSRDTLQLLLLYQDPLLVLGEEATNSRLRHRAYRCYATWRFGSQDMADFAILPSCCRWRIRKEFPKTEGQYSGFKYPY
- testProtocol: cell-based or functional assay
valueType: IC50 (nM) against 20 uM NAD (CD62L shedding, Yac-1 cells)
Numbers only, in nM.

Record P2X7PMP8C7 (VHH, family 7; on phage or c-myc/His6-tagged in assays) VHH: EMQLVESGGGLVQAGGSLRLSCAASGRTFSSLAMGWLRQAPGKEREFVSGISRGGTSTYYADSVKGRFTISRDNAKNTMYLQMNSLKPEDTAVYYCAGSPVLSIVLDTRGLEYWGQGTQVTVSS . Reported IC50 (nM) against 20 uM NAD (CD62L shedding, Yac-1 cells): 4000

So, P2X7PMP8F5 (VHH, family 5, 2; on phage or c-myc/His6-tagged in assays) VHH: EVQLVKSGGGLVQAGGSLRLSCAASGSFFRVNNMAWYRQAPGKQRELVADITRGDRTNYADSVNGRFTISRDNVRNTVYLQMNGLKPEDTAVYYCYARIELGPLVPRDYWGQGTQVTVSS ? Its IC50 (nM) against 20 uM NAD (CD62L shedding, Yac-1 cells) was 579

Just so you know, measured IC50 (nM) against 20 uM NAD (CD62L shedding, Yac-1 cells) for P2X7PMP13A7 (VHH, family 22; on phage or c-myc/His6-tagged in assays) VHH: EVQLVESGGGLVQPGESLRLSCTASRFMLDYYDIGWFRQAPGKEREGVSCRFTNDGSTAYADSVKGRFTISRDIVKHTVYLQMNSLQPEDTAVYYCAAGPLTKRRQCVPGDFSMDFWGEGTLVTVSS came out at 11

Reported IC50 (nM) against 20 uM NAD (CD62L shedding, Yac-1 cells) ( P2X7PMP8E7 (VHH, family 7; on phage or c-myc/His6-tagged in assays) VHH: EVQLVESGGGLVQAGGSLRLSCAASGRTFSSLAMGWLRQAPGKEREFVSGISRGGTSTYYADSVKGRFTISRDNAKNTMYLQMNSLKPEDTAVYYCAGSPVLSIVLDTRGLEYWGQGTQVTVSS ) = 4000

Others:
Quick note, IC50 (nM) against 20 uM NAD (CD62L shedding, Yac-1 cells) for P2X7PMP13B5 (VHH, family 19; on phage or c-myc/His6-tagged in assays) VHH: EVQLVESGGGLVQAGDSLRLSCAASGRTFSSYAMGWFRQAPGKEREFVAAISLSGSMTYYADSMKGRFTISRDNAKNTVYLQMNSLKPEDTAVYYCAAEELGDGLGYLAYRYDYWGQGTQVTVSS landed at 3650
